Attribution: PubChem BioAssay (NCI)

- Test system: SK-OV-3 ovarian
- protocol description: NCI-60 one-dose screen, 48 h (100 = growth as untreated, 0 = no growth, -100 = all killed)
- experimental setup: 10 µM unless noted
Compounds without any hit were thinned out: in the full panel of roughly 83,000, 20% have a hit.

# molecule, growth (%)
data = [
    ("CC(=O)Nc1ccc(C(=O)c2ccc(S(=O)(=O)Nc3ccccc3)cc2)cc1", 104),
    ("CCCCN(C(=O)CC)c1ccccc1", 114),
    ("N#C/C(=C\\NC(=S)N=Nc1c(O)[nH]c2ccccc12)c1nc2ccccc2s1", 92.8),
    ("Cc1ccc(NC(=S)N2CCOCC2)cc1C", 97.9),
    ("C/C(Cc1ccccc1)=N\\O", 128),
    ("C/C(O)=C(/C=N/C(=S)Nc1ccccc1)C(=O)Nc1ccccc1C", 101),
    ("O=C(NC(=S)N1CC=CCC1)c1ccccc1", 107),
    ("CCOC(=O)c1cc(C)[nH]c(=O)c1C#N", 95.4),
    ("O=C1C=C[C@H](O)[C@@]2(CO)O[C@@H]12", 115),
    ("Cc1ccc(S(=O)(=O)NC(=O)NCCSSCCNC(=O)NS(=O)(=O)c2ccc(C)cc2)cc1", 116),
    ("Clc1ccc(/C=C/c2ccccn2)cc1", 104),
    ("CCOC(=O)/C(O)=C(\\C=N\\C(=S)Nc1ccc(Cl)c(Cl)c1)C(=O)OCC", 81.6),
    ("Oc1ccc(N=Cc2ccc(OCc3ccccc3)cc2)cc1", 112),
    ("O=C(O)c1cc(I)ccc1O", 103),
    ("O=C(CCl)Oc1ccc([N+](=O)[O-])cc1", 133),
    ("CC(=O)Nc1ccc(O)c(C)c1", 105),
    ("Oc1cc(O)c2c(c1)O[C@H](c1ccc(O)c(O)c1)[C@@H](O)C2", 109),
    ("ClCc1cccc2c(CCl)cccc12", 83),
    ("CC(C)(C)NCCC(O)c1cc(C(F)(F)F)nc2c(C(F)(F)F)cccc12 (stereo unspecified)", 89.3),
    ("CCCCCCCCNC(=O)C(C)C", 105),
    ("COC1(OC)C2(Cl)C(Cl)=C(Cl)C1(Cl)C1COCC12 (stereo unspecified)", 96),
    ("N#Cc1ccc(OC(=O)Nc2c(Cl)cc(Cl)cc2Cl)cc1", 99.7),
    ("Cc1c(Cl)cccc1N=C=S", 104),
    ("CCCCOC(=O)c1ccc(NC(=O)CCl)cc1", 105),
    ("NNC(=O)N/N=C1\\C(=O)N(c2nccs2)C(=O)C(=O)C1c1nc2ccccc2s1 (stereo unspecified)", 103),
    ("CCOC(=O)CNC", 106),
]

====

- Tested on: SNB-75 CNS
- protocol description: NCI-60 one-dose screen, 48 h
- experimental setup: 10 µM unless noted
The panel holds about 83,000 compounds, 20% with a hit somewhere; the sample as a whole holds those more often. Active and inactive are the calls of the source. Rule for the calls: active = growth percent below 10; inactive = the rest.
Classes used: true (1) = active, false (0) = inactive

# molecule, experimental target, label value
rows = [
    ("C=COC(=O)C(C)(C)C", "SNB-75 CNS", "false (0)"),
    ("O=C(c1cccc(C(=O)c2ccc3c4c(cccc24)C(=O)N(c2ccccc2)C3=O)c1)c1ccc2c3c(cccc13)C(=O)N(c1ccccc1)C2=O", "SNB-75 CNS", "false (0)"),
    ("Cc1ccc(NC(=S)N2CCOCC2)cc1C", "SNB-75 CNS", "false (0)"),
    ("Cc1cc2nc(C)c(C)nc2cc1C", "SNB-75 CNS", "false (0)"),
    ("O=C(c1ccccc1)c1ccc(-c2ccc(O)cc2)cc1", "SNB-75 CNS", "false (0)"),
    ("COc1cc2c(c(OC)c1OC)-c1ccc(SC)c(=O)cc1[C@@H](NC1OC(CO)C(O)C(O)C1O)CC2 (some centres not stated)", "SNB-75 CNS", "false (0)"),
    ("O=C(O)Cc1ccc(Cl)cc1", "SNB-75 CNS", "false (0)"),
    ("CCN(CC)c1ccc2nc3ccc(N=Nc4ccc(N(C)C)cc4)cc3[n+](-c3ccccc3)c2c1", "SNB-75 CNS", "true (1)"),
    ("CCN(Cc1ccc(Cl)c(Cl)c1)c1ccc2nc(N)nc(N)c2c1C", "SNB-75 CNS", "true (1)"),
    ("c1ccc2[nH]c(Cc3nc4ccccc4[nH]3)nc2c1", "SNB-75 CNS", "false (0)"),
    ("CCOc1ccncc1[N+](=O)[O-]", "SNB-75 CNS", "false (0)"),
    ("O=c1nc(Nc2cccc(Cl)c2)oc2cc(Cl)oc(=O)c12", "SNB-75 CNS", "false (0)"),
    ("O=S(=O)(O)C(C(I)I)S(=O)(=O)O", "SNB-75 CNS", "false (0)"),
    ("Cc1ccc(C(C)C)c(OCC(=O)O)c1", "SNB-75 CNS", "false (0)"),
    ("CC(CCC#N)(CCC#N)C(=O)c1ccccc1", "SNB-75 CNS", "false (0)"),
    ("Cc1ccc(/C=N/NC(N)=S)s1", "SNB-75 CNS", "false (0)"),
    ("Cc1ccc(C)c(CN(C)C)c1O", "SNB-75 CNS", "false (0)"),
    ("O=C(NC1CCCCC1)c1ccc(Cl)cc1", "SNB-75 CNS", "false (0)"),
    ("CCC12OC(COc3ccccc3)CN1CCN2c1ccccc1 (configuration not stated)", "SNB-75 CNS", "false (0)"),
    ("O=[n+]1ccn([O-])c2ccccc21", "SNB-75 CNS", "false (0)"),
    ("O=C(c1ccccc1O)N1CCCC1", "SNB-75 CNS", "false (0)"),
    ("Cc1ccccc1CC(N)C(=O)O (configuration not stated)", "SNB-75 CNS", "false (0)"),
    ("CCOC(=O)CO", "SNB-75 CNS", "false (0)"),
    ("O=S(=O)(O)c1ccc(O)c(C2CCCCC2)c1", "SNB-75 CNS", "false (0)"),
    ("Nc1cccc2cccc(O)c12", "SNB-75 CNS", "false (0)"),
    ("CCNc1ncnc2[nH]ncc12", "SNB-75 CNS", "false (0)"),
    ("N#C/C(=C\\c1ccc2c(c1)OCO2)c1ccccc1", "SNB-75 CNS", "false (0)"),
]

====

Measured growth by item
- Tested on: SNB-19 CNS
- protocol description: NCI-60 one-dose screen, 48 h (100 = growth as untreated, 0 = no growth, -100 = all killed)
- experimental setup: 10 µM unless noted
Compounds without any hit were thinned out: in the full panel of roughly 83,000, 20% have a hit. Activity calls are given as the source filed them. Rule for the calls: active = growth percent below 10; inactive = the rest.
measure: growth

# smiles record, result value
records = [
    ("CN(C)CCOC(=O)Nc1ccc(Cc2ccc(NC(=O)OCCN(C)C)cc2)cc1", "99.6% [100 µM] (inactive)"),
    ("Cn1c(=O)[nH]c2ccccc2c1=O", "94.3% (inactive)"),
    ("COc1cccc(C(=O)NNC(=O)c2cccc3ccccc23)c1", "110% (inactive)"),
    ("C1CCc2onc(-c3noc4c3CCCCC4)c2CC1", "98% (inactive)"),
    ("CCC(=O)Oc1ccc2ccccc2c1", "97.9% (inactive)"),
    ("CCOC(=O)/C(C)=C\\c1ccc(OC)c(OC)c1", "107% (inactive)"),
    ("O=[n+]1ccn([O-])c2ccccc21", "102% (inactive)"),
    ("CCOC(=O)/C(O)=C(\\C=N\\C(=S)Nc1ccc(Cl)c(Cl)c1)C(=O)OCC", "104% (inactive)"),
    ("CC(=O)c1cccc(O)c1", "108% (inactive)"),
    ("CCCCN(C=S)CCCC", "94.3% (inactive)"),
    ("Nc1nc(N)nc(N2CCCCC2)n1", "115% (inactive)"),
    ("CCN(C(C)=O)c1ccc([N+](=O)[O-])cc1", "101% (inactive)"),
    ("COc1ccc2c(c1)Nc1ccccc1S2", "110% (inactive)"),
]

====

- System: IGROV1 ovarian
- protocol description: NCI-60 one-dose screen, 48 h (100 = growth as untreated, 0 = no growth, -100 = all killed)
- experimental setup: 10 µM unless noted
Compounds without any hit were thinned out: in the full panel of roughly 83,000, 20% have a hit.
Overview of reported growth across a group of compounds:

# compound, unit of measure, growth
data = [
    ("COc1cc(C(=O)O)c(O)c(C(C)(C)C)c1", "%", 107),
    ("CCCCOC(=O)c1ccccc1O", "%", 118),
    ("CC1CCC(C)(C)c2ccccc21 (stereo unspecified)", "%", 98.4),
    ("Cn1c(=O)c2[nH]c(CC(=O)O)nc2n(C)c1=O", "%", 103),
    ("CC(CCC#N)(CCC#N)C(=O)c1ccccc1", "%", 125),
    ("CC(=O)[C@@]1(O)CC[C@H]2[C@@H]3CC[C@@H]4CC(=O)CC[C@]4(C)[C@H]3[C@@H](O)C[C@@]21C", "%", 103),
    ("O=Cc1ccc(Cl)c(Cl)c1", "%", 83.7),
    ("c1ccc(-c2ccc3ccccc3c2)cc1", "%", 85.3),
    ("CCN(CC)CCCC(C)NC(=S)N/N=C(\\C)c1ccccn1 (stereo unspecified)", "%", 32.3),
    ("CC(c1ccccc1)N(C)C (stereo unspecified)", "%", 152),
    ("CCCOCc1cn[nH]n1", "%", 113),
    ("Cc1ccccc1NC(=O)Oc1ccc(Cl)cc1C(=O)c1ccccc1", "%", 101),
    ("CC(O)C(F)(F)C(F)(F)C(F)(F)F (stereo unspecified)", "%", 114),
    ("O=C(O)C1CCCN1C(=O)OCc1ccccc1 (stereo unspecified)", "%", 104),
    ("COc1ccc(Nc2cc(Cl)ccc2C(=O)O)cn1", "%", 115),
    ("CC(=O)C[n+]1ccc(C)cc1Sc1ccccc1C", "%", 120),
    ("Cc1[nH]nc(C(N)=O)c1[N+](=O)[O-]", "%", 115),
    ("NC(=O)c1cc2c3ccccc3ccn2c1-c1ccccc1", "%", 20.2),
    ("O=[N+]([O-])c1ccc2[nH]c(=S)n(/C=C(/c3ccc(Cl)cc3Cl)S(=O)(=O)Cc3ccc(Cl)cc3Cl)c2c1", "%", 104),
    ("Cc1cccc(C)c1NC(=S)/N=C\\c1c(O)[nH]c(=O)[nH]c1=O", "%", 101),
    ("O=S(=O)(O)c1ccc(O)c(C2CCCCC2)c1", "%", 107),
    ("N#C/C(=C\\c1ccc2c(c1)OCO2)c1ccccc1", "%", 62.8),
    ("CS(=O)CC(=N\\O)/C(CS(C)=O)=N\\O (stereo unspecified)", "%", 109),
    ("CC1=CC(=Nc2ccc(N(C)C)cc2)C=C(C)C1=O", "%", 96.1),
    ("CC(CO)(CO)C(=O)O", "%", 126),
    ("Cc1cc(Cc2ccccc2)c(O)c(Cc2ccccc2)c1", "%", 90.2),
]
